- targetOrTestSystem: NET (rat hypothalamus synaptosomes) (Rattus norvegicus, UniProt Q63380)
- Sequence (Q63380 1-617): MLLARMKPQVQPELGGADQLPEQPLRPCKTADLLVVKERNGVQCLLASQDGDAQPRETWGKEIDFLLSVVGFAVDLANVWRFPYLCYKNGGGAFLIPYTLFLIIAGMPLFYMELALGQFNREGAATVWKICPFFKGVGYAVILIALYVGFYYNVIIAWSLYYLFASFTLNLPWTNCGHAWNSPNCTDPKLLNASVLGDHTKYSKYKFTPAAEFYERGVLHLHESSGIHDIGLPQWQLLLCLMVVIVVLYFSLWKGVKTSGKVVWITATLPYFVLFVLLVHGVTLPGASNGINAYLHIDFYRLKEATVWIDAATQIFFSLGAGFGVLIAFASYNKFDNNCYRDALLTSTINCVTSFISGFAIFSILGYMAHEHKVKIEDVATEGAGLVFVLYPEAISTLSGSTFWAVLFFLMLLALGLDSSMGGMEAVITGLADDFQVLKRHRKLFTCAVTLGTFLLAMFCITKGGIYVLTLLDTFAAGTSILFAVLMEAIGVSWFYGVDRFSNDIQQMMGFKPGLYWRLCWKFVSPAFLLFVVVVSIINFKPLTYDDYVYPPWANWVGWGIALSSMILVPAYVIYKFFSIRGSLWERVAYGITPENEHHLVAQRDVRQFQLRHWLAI
- experiment: NE uptake inhibition assay, [3H]norepinephrine into synaptosomes
- assaySetup: 20 min 37° C., read-out: NET IC50 (norepinephrine reuptake inhibition)
testReadout: IC50

# query: IC50 of entry Cc1cccc2c1Oc1ccccc1C1(O)CCN(C)CC21 (single isomer, unassigned; (+)) [(+)-beloxepin]
1200 nM

###

- targetOrTestSystem: UniProt P28223
- Sequence (P28223 whole entry): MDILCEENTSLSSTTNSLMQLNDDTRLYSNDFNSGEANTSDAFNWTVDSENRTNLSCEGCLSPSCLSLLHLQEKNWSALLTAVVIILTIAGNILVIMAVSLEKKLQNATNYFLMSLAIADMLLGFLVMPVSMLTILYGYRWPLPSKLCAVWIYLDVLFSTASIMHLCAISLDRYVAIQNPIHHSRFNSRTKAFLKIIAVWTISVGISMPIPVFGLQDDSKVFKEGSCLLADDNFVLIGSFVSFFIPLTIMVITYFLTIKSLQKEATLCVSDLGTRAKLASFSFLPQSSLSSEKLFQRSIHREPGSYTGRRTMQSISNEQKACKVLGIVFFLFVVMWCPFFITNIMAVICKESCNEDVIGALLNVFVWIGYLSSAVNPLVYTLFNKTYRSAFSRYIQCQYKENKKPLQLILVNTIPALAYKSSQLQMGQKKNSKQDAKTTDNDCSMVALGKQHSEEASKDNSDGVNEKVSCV
- experiment: 5HT2A functional assay, intracellular Ca2+ in HEK-293 cells
- assaySetup: antagonist mode, vs 3.0 nM serotonin
testReadout: IC50 (µM)
One number for each entry, in µM.

In [3]: df
Out[3]:
                                   compound  result
0  Cc1cccc2c1Oc1ccccc1C1(O)CCN(C)CC21 (racemic) [(±)-beloxepin]     5.2

Now for another entry.
# query: IC50 of entry Cc1cccc2c1Oc1ccccc1C1(O)CCN(C)CC21 (single isomer, unassigned; (+)) [(+)-beloxepin]
1.6
